Please provide measured pIC50 for the entries that follow.
target: Human immunodeficiency virus type 1 reverse transcriptase (Human immunodeficiency virus 1, UniProt Q72547); assay: Inhibition of HIV1 reverse transcriptase by ELISA
Answers are plain numbers, as −log10 of the molar value.

The following molecules have reported results that may help.
Query: Can you share its pIC50? I mean this molecule: Cc1ccccc1CSc1nc(Cc2ccccc2)cc(=O)[nH]1
Result: 4.32

Query: Find the recorded pIC50 belonging to CCOCSc1nc(Cc2ccccc2)c(C)c(=O)[nH]1 and report it.
Result: 4.29

Query: # pIC50 lookup, item Cc1c(Cc2ccccc2)nc(SCCCc2ccccc2)[nH]c1=O
Result: 5.53

Then this molecule:
Query: Can you share its pIC50? I mean this molecule: COc1cccc(CSc2nc(Cc3ccccc3)cc(=O)[nH]2)c1
Result: 4.04

* * *

biological target: Human immunodeficiency virus type 1 reverse transcriptase (Human immunodeficiency virus 1, UniProt Q72547)
Please go through the items and note down their IC50.

Look up IC50 for the entries below, preserving their order.
1. Cc1ccccc1CSc1nc(Cc2ccccc2)c(C)c(=O)[nH]1
2. CC(Sc1nc(Cc2ccccc2)cc(=O)[nH]1)c1ccccc1 (stereo not drawn)
3. C=CCSc1nc(Cc2ccccc2)cc(=O)[nH]1

Result:
> 100 µM
> 100 µM
> 100 µM
